Biological target: Torsin-1A-interacting protein 2 (Homo sapiens)
Assay: small molecules binding lysate-expressed LULL1 – cell lysate, human LULL1 lysate, 635/667 nm fluorescence, primary screen (AID 1092);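 further: probe is lysate of COS7 cells overexpressing human LULL1; score merges per-feature 667 nm fluorescence with signal-to-noise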
Conditions: small-molecule microarray, hLULL1 lysate binding, 635 nm fluorescence; higher = more signal
Reported Metric: composite z-score

Example entries begin here.
Molecule | composite z-score
O=C1[C@@]23C=C(Br)[C@H](C[C@@H]2COC3)[C@]12CO2 | 0.246
O=C1OCCC=C[C@H]2OC34C=CCN(Cn5nnc6ccccc65)C(=O)[C@H]3N(CCO)C(=O)[C@@H]4C12 (some centres not stated) | -0.316

Batch lookup, composite z-score per entry.
1. CC(C)CCC[C@@H](C)[C@H]1CC[C@@]2(C)C3=C(CC[C@]12C)[C@@]1(C)CC[C@H](OC(=O)c2ccc(C(F)(F)F)nc2)C(C)(C)C1CC3 (some centres not stated)
2. COc1ccc(C#Cc2ccc3c(c2)[C@]2(C(=O)N3)[C@H](c3ccc(O)cc3)N3[C@H](c4ccccc4)[C@H](c4ccccc4)OC(=O)[C@H]3[C@@H]2C(=O)N2CCc3cc(OC)c(OC)cc3C2)cc1
3. [N-]=[N+]=Nc1ccccc1C[C@@]1(C(=O)N2CCCCC2)N=C(c2ccc(OCCCO)cc2)O[C@@H]1c1ccccc1
4. CC#CC(=O)Oc1ccc(Br)cc1C=CC(=O)OCC
5. C=C(CCCC)/C(=C/C[C@@H](OC(C)=O)c1cccc(OCCO)c1)c1cnc2ccccc2c1

Ans.
1: 0.282; 2: 3.04; 3: 2.97; 4: 1.18; 5: 0.268

Data origin: PubChem BioAssay
